- Study System: serotonin 5-HT3 receptor (Cavia porcellus, UniProt O70212)
- Construct: Longitudinal muscle samples of about 20 mm were prepared from the ileum of Hartley male guinea pigs; from tissue; host or cells: guinea pig (Hartley, male) ileum longitudinal muscle
- Sequence (O70212 20-490): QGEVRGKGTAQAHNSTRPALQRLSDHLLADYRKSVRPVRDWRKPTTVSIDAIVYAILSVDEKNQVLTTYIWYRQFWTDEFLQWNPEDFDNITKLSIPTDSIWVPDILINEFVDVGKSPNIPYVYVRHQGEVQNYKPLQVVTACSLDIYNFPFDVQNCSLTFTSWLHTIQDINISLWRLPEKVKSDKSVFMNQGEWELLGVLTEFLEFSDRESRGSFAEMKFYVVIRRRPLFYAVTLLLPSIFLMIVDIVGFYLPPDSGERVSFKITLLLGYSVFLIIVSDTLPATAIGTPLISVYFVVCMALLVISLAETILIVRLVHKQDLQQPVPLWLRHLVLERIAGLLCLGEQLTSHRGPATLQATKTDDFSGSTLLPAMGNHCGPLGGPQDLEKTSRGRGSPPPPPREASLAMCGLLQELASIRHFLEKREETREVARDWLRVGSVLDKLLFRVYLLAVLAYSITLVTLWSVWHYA
- Procedure Details: 5-HT3 receptor activating action test, isometric contraction of guinea pig ileum longitudinal muscle
- Type: cell-based
- Run Parameters: negative logarithm of molar concentration giving 50% of the compound's maximum contraction; guinea pig ileum; read-out: Activation Action pD2 (converted)
- Experimental: 5-HT3 Receptor Activating Action Test Of the novel and known benzoxazole compounds according to the present invention, typical compounds and the compounds disclosed in JP-A-6-345744, namely 5-methoxy-2-(4-methyl-1-piperazinyl)benzoxazole (A) and 2-(4-methyl-1-piperazinyl)naphtho[2,3-d]oxazole (B), were measured for their serotonin 5-HT3 receptor antagonism and serotonin 5-HT3 receptor activating action by the following method, with the results shown in Table 1. […]
Observation Type: EC50 (nM)
Express your answer in nM, writing the number without its unit.

So what EC50 did Nc1cc2oc(N3CCNCC3)nc2cc1Cl get with serotonin 5-HT3 receptor (Cavia porcellus, UniProt O70212)?
676

So what EC50 did CN1CCN(c2nc3cc4ccccc4cc3o2)CC1 [B, reference compound] get with serotonin 5-HT3 receptor (Cavia porcellus, UniProt O70212)?
3980

So what EC50 did C=CC[N+]1(C)CCN(c2nc3cc(C)ccc3o2)CC1.[Br-] get with serotonin 5-HT3 receptor (Cavia porcellus, UniProt O70212)?
708

So what EC50 did Cc1cc(Cl)cc2nc(N3CCCN(C)CC3)oc12 get with serotonin 5-HT3 receptor (Cavia porcellus, UniProt O70212)?
20
